Cited source: patent US10046050B2

Below, each entry is listed with its recorded kt (RU/(M*s)).
Test system: mAb 7D8
Experiment: Surface plasmon resonance of mAb 7D8 binding to amino-coupled peptopes
Conditions: Langmuir with Mass Transfer; 7D8 2.7 nM

PRIMARY_SEQUENCE: KAQKAQAKQAKQAQKAQKAQAKQAKQAQHEDT [p75, KAQKAQAKQAKQAQKAQKAQAKQAKQAQHEDT]
kt (RU/(M*s)): 9.14E+08 RU/(M*s)
--
PRIMARY_SEQUENCE: KAQKAQAKQAKQAQKAQKAQAKQAKQGGGHEDT [p76, KAQKAQAKQAKQAQKAQKAQAKQAKQGGGHEDT]
kt (RU/(M*s)): 1.43E+09 RU/(M*s)
--
PRIMARY_SEQUENCE: KAQKAQAKQAKQAQKAQKAQAKQAKQVTVHEDT [p78, KAQKAQAKQAKQAQKAQKAQAKQAKQVTVHEDT]
kt (RU/(M*s)): 1.65E+09 RU/(M*s)
--
PRIMARY_SEQUENCE: KAQKAQAKQAKQAQKAQKAQAKQAKQGPGHEDT [p77, KAQKAQAKQAKQAQKAQKAQAKQAKQGPGHEDT]
kt (RU/(M*s)): 4.57E+08 RU/(M*s)
